- System: Vero E6
- Method: cell viability relative to DMSO; higher = less toxic
- Assay context: 72 h; 10000 nM
Let's look at some compounds and their measured cell viability.
Expressed in %, but write only the number.

{"columns": ["Compound", "cell viability [%]"],
 "data": [
  ["O=c1oc2cc(O)ccc2s1", 101]
]}

[Q] What value of cell viability has been recorded for this entry: CCOC(=O)c1cnc2c(cnn2CC)c1NN=C(C)C [etazolate]
[A] 85.1

[Q] Follow-up entry: Cc1nc(C)c(-c2ccc(C3CCC(CC(=O)O)CC3)cc2)nc1C(N)=O (stereo not drawn)
[A] 98.5

[Q] Follow-up entry: COc1ccc(C(=O)NCc2ccc(OCCN(C)C)cc2)cc1OC [itopride]
[A] 96.7

[Q] Follow-up entry: Cc1cc(C(=O)O)sc1C(N)C(=O)O (stereo not drawn)
[A] 98

###

- Tested on: Vero E6
- Method: cell viability relative to DMSO; higher = less toxic
- Assay context: 72 h; 10000 nM
Experimental readout: cell viability
# do not omit the unit; it follows the number

Answered examples (2):
{"columns": ["Molecule", "cell viability"],
 "data": [
  ["c1ccc(Cn2c(N3CCNCC3)nc3ccccc32)cc1 [lerisetron]", "96.6%"],
  ["Cc1[nH]c2ccc(Cl)cc2c1C1=CCNCC1", "91.7%"]
]}

Query molecule follows.
[Q] What value of cell viability has been recorded for this entry: Cn1ccnc1S [methimazole]
[A] 101%
